Where do these numbers come from? They come from patent US10231954B2.

- TARGET_DESC: MNK2 (Homo sapiens)
- Sequence (Q9HBH9 whole entry, species assumed): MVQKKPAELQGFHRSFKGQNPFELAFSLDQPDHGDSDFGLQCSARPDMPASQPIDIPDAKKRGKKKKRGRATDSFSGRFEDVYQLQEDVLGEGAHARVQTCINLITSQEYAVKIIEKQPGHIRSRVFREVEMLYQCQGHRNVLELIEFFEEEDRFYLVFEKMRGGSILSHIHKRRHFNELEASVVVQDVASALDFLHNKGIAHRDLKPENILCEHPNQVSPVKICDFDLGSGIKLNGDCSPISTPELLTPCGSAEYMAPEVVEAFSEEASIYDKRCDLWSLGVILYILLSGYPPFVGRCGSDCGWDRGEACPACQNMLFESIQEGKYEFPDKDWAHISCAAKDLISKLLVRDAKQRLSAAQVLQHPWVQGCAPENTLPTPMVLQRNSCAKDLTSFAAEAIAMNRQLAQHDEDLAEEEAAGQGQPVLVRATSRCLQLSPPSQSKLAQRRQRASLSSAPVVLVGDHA
- TEST: Kinase profiling MNK2
- Format: biochemical
- ASSAY_CONDITIONS: 100 micromolar inhibitor concentration; 100 is no change; read-out: residual kinase activity, MNK2
Documented remaining activity at 100 µM across a set of compounds

Here are 3 compounds together with their reported answers.
1. CC(=O)Nc1nc2ccc(C#N)cc2s1 [Compound 01-94]: 50%
2. CC(=O)Nc1nc2ccc(C(F)(F)F)cc2s1 [Compound 01-90]: 71%
3. CC(=O)Nc1nc2ccc(O)cc2s1 [Compound 01-71]: 34%

Exercise: Give recorded remaining activity at 100 µM. COc1ccc2sc(NC(C)=O)nc2c1 [Compound 03-21]
Key: 84%

Exercise: Give recorded remaining activity at 100 µM. CC(=O)Nc1nc2cc(C(F)(F)F)ccc2s1 [Compound 03-73]
Key: 96%

Exercise: Give recorded remaining activity at 100 µM. CC(=O)Nc1nc2cc(F)ccc2s1 [Compound 03-77]
Key: 86%

###

- TARGET_DESC: JNK3 (Homo sapiens)
- Sequence (P53779 whole entry, species assumed): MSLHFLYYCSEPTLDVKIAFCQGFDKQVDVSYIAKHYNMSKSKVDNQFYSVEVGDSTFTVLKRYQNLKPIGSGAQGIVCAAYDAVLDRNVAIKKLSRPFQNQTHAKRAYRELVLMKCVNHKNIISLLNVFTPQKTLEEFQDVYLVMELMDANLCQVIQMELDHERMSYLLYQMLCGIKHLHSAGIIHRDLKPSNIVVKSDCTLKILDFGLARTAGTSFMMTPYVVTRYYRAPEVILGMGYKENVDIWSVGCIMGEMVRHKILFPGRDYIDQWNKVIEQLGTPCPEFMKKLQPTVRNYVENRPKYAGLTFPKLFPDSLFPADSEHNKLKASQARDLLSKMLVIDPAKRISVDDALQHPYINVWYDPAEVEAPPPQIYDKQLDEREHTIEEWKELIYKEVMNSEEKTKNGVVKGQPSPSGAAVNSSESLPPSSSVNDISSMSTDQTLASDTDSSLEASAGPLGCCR
- TEST: Kinase profiling JNK3
- Assay type: biochemical
- ASSAY_CONDITIONS: 100 micromolar inhibitor concentration; 100 is no change
READOUT_KIND: residual kinase activity, JNK3
Please reply with the number alone, leaving off any unit.

1) COc1ccc2sc(NC(=O)c3cccc(NC(C)=O)c3)nc2c1: 62
2) CC(=O)Nc1cccc(C(=O)Nc2nc3cc(O)ccc3s2)c1: 36
3) O=C(Nc1nc2cc(O)ccc2s1)c1ccncc1: 77
4) O=C(Nc1nc2ccc(O)cc2s1)c1ccccn1: 70
5) O=C(Nc1nc2cc(O)ccc2s1)c1ccccn1: 67

Exercise: Give recorded residual kinase activity, JNK3. "CC(=O)Nc1nc2ccccc2s1"
Key: 66

Exercise: Give recorded residual kinase activity, JNK3. CC(=O)NC(C)C(=O)Nc1nc2ccc(C(F)(F)F)cc2s1 (centres unmarked)
Key: 79

Exercise: Give recorded residual kinase activity, JNK3. "CC(=O)Nc1ccc(C(=O)Nc2nc3cc(O)ccc3s2)cc1"
Key: 66

Exercise: Give recorded residual kinase activity, JNK3. "O=C(Nc1nc2ccc(O)cc2s1)c1ccncc1"
Key: 65

Exercise: Give recorded residual kinase activity, JNK3. "O=C(Nc1nc2ccc(O)cc2s1)c1ccccc1"
Key: 48

Exercise: Give recorded residual kinase activity, JNK3. "CC(=O)Nc1nc2cc(C)ccc2s1"
Key: 76

###

- TARGET_DESC: UniProt Q06187
- Sequence (Q06187 whole entry, species assumed): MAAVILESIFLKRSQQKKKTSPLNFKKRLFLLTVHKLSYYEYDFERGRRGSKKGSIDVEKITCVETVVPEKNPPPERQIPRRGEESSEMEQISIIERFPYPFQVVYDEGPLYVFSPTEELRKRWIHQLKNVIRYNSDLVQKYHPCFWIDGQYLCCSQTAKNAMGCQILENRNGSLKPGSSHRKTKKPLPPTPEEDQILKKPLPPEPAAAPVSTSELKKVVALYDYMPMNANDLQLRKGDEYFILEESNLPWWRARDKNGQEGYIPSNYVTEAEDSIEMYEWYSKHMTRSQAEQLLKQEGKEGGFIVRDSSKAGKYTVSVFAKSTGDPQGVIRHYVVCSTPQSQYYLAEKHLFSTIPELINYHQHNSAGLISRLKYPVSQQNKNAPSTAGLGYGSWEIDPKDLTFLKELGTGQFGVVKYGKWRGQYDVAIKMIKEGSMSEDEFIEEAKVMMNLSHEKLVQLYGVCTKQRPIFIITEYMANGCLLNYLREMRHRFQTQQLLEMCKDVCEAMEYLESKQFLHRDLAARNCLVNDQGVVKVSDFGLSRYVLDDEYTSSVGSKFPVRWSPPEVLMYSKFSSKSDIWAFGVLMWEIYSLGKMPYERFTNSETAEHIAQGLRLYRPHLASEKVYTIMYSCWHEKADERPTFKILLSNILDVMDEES
- TEST: Kinase profiling BTK
- Assay type: biochemical
- ASSAY_CONDITIONS: 100 micromolar inhibitor concentration; 100 is no change
READOUT_KIND: residual kinase activity, BTK
Please reply with the number alone, leaving off any unit.

1) O=C(Nc1nc2ccc(C(F)(F)F)cc2s1)c1ccccc1 [Compound 03-99]: 79
2) COC(=O)c1cccc(C(=O)Nc2nc3cc(OC)ccc3s2)c1 [Compound 03-108]: 68
3) N#Cc1ccc2nc(NC(=O)c3ccccc3)sc2c1 [Compound 03-106]: 49
4) O=C(Nc1nc2ccc(O)cc2s1)c1ccccc1 [Compound 03-60]: 59

Exercise: Give recorded residual kinase activity, BTK. COc1ccc2nc(NC(=O)c3ccccc3)sc2c1 [Compound 03-98]
Key: 56

Exercise: Give recorded residual kinase activity, BTK. O=C(Nc1nc2cc(O)ccc2s1)c1ccccn1 [Compound 03-13]
Key: 90

Exercise: Give recorded residual kinase activity, BTK. O=C(Nc1nc2ccc(O)cc2s1)c1ccncc1 [Compound 08-42]
Key: 59

Exercise: Give recorded residual kinase activity, BTK. CC(=O)Nc1nc2cc(C)ccc2s1 [Compound 03-76]
Key: 92

Exercise: Give recorded residual kinase activity, BTK. O=C(Nc1nc2ccc(F)cc2s1)c1ccccc1 [Compound 03-92]
Key: 73

Exercise: Give recorded residual kinase activity, BTK. COC(=O)c1cccc(C(=O)Nc2nc3ccc(F)cc3s2)c1 [Compound 03-110]
Key: 77
